target: Serine/threonine-protein kinase PAK 3 (Homo sapiens) (UniProt O75914); conditions: at 0.1 µM;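 note: mean percent inhibition of PAK3, measured in a screen of the GSK published kinase inhibitor set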
Sequence (O75914 whole entry, looked up): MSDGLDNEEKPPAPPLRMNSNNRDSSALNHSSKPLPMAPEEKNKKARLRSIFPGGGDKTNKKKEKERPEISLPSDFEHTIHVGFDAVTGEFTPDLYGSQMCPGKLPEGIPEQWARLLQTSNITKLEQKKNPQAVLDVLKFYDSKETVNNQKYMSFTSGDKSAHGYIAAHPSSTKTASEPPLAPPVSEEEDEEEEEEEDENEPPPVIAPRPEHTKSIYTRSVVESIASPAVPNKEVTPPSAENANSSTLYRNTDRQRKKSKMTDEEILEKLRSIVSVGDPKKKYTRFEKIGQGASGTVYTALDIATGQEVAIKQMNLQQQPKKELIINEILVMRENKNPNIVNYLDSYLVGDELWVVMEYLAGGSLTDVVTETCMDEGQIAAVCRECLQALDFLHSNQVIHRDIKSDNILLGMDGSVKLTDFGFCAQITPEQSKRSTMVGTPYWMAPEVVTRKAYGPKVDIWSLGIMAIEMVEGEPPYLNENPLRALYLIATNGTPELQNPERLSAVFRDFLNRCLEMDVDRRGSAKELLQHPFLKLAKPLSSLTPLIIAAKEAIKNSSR
VALUE_KIND: inhibition
The answer should read as a number with its unit following.

What value of measured inhibition is listed for `CC(=O)Nc1cccc(C#Cc2cncnc2Nc2ccc(OCc3cccc(F)c3)c(Cl)c2)c1` ?
2.92%

// same read-out, input: `CCn1cc(-c2ccnc3[nH]ccc23)c(-c2cccc(NC(=O)Nc3ccc(OCc4ccccc4)cc3)c2)n1`
1.3%

Proceed to `Cc1ccc(O)cc1Nc1ccnc2cc(-c3ccccn3)ccc12`
4.92%

Can you handle `NC(=O)c1sc(-n2cnc3ccc(C(F)(F)F)cc32)cc1OCc1ccccc1Br` next?
3.71%

// repeat for `COc1ccc(-c2cc3c(N)ncnc3o2)cc1` and report
-1.87%

Next: `COc1ccc(-c2cc(-c3c[nH]nc3-c3ccccn3)ccn2)cc1`
5.46%

Please do the same for `CN1CCC(n2cnc(-c3ccc(F)cc3)c2-c2ccnc(N)n2)CC1` as well.
0.98%

* * *

molecular target: Protein kinase C beta type (Homo sapiens) (UniProt P05771); settings: at 1 µM;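 note: GSK PKIS screen, average inhibition of the PKC-beta2 splice variant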
Sequence (P05771 2-671 limits assumed): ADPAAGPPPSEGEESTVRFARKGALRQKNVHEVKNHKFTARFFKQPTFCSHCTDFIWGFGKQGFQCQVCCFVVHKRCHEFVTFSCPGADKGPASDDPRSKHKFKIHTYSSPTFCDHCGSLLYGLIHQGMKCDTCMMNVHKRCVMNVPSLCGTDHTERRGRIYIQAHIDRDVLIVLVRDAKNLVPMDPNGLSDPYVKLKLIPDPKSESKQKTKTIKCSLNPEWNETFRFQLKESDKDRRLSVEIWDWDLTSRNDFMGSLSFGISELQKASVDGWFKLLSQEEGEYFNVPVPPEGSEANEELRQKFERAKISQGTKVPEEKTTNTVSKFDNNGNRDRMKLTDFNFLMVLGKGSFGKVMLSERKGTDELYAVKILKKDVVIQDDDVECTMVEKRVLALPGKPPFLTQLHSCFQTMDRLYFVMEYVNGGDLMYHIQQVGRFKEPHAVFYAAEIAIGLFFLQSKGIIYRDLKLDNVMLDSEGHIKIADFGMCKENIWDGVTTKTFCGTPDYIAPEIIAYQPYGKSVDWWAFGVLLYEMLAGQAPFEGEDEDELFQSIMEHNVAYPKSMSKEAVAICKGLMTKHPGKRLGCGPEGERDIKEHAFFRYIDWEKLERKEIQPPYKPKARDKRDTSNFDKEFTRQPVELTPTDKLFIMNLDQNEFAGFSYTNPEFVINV
Description: GSK_PKIS: PKC-beta2 (splice variant) mean inhibition at 1 uM [Nanosyn]
VALUE_KIND: inhibition (%)
Write down the numeric answer in % and omit the unit.

Example entries begin here.
Nc1nc(-c2ccc(F)cc2)c(-c2ccc3ncccc3n2)s1; 3.48
Cc1cccc2c1NC(=O)/C2=N\Nc1ccc(S(N)(=O)=O)cc1; 0.46
CCCN1CCC(c2ccc(Nc3nc(Nc4cc(F)ccc4C(N)=O)c4cc[nH]c4n3)c(OC)c2)CC1; 6.05
CC(=O)NCc1cccc(C#Cc2cncnc2Nc2ccc(OCc3cccc(F)c3)c(Cl)c2)c1; 0.37
CNC(=O)c1cc(-c2ccc(F)cc2)cc(-c2ccc(S(=O)(=O)N3CCCC3)cc2)c1N; 1.04

Entry under review: `COc1ccc(-c2cc3c(N)ncnc3o2)cc1` . Reported inhibition?
1.65

Also `COc1ccc(-c2cc(-c3c[nH]nc3-c3ccccn3)ccn2)cc1` , if possible.
1.96

Now the molecule `N#Cc1c(NC(=O)CN2CCOCC2)sc2c1CCCC2`
2.84

Here is the next molecule: `CCn1c(-c2nonc2N)nc2c(C#CC(C)(C)O)nc(OC[C@H](N)c3ccccc3)cc21`
59.4

# iterate: `[O-][S+]1CCN(Cc2ccc(-c3ccc4ncnc(Nc5ccc(OCc6cccc(F)c6)c(Cl)c5)c4c3)o2)CC1`
2.51

* * *

Measured inhibition accompanies every entry in the list below.
target: Testis-specific serine/threonine-protein kinase 1 (Homo sapiens); conditions: at 1 µM;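 note: reported value is the mean inhibition, from the GSK PKIS kinase screening panel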
Return type: number; implicit unit %.

N#Cc1c(NC(=O)c2ccc(F)cc2)sc2c1CCCC2; 0.89

Quick check: inhibition of `[O-][S+]1CCN(Cc2ccc(-c3ccc4ncnc(Nc5ccc(OCc6cccc(F)c6)c(Cl)c5)c4c3)o2)CC1` ?
5.31

Request: `Clc1ccc(-c2nn3ncccc3c2-c2ccnc(Nc3ccccc3)n2)cc1`
0.18

Query `CCn1c(-c2nonc2N)nc2ccccc21` next
0.61

Next entry: `CN1CCC(n2cnc(-c3ccc(F)cc3)c2-c2ccnc(N)n2)CC1`
3.07

Continue with `Nc1nc(-c2cccc(Cl)c2)c(-c2ccc3ncccc3n2)s1`
12.9

Queued: `COc1ccc(-c2cc(-c3c[nH]nc3-c3ccccn3)ccn2)cc1`
5.54

Param item: `COc1ccc2c(-c3ccnc(Nc4cccc(OC(F)(F)F)c4)n3)cnn2n1`
7

Next entry: `CS(=O)(=O)CCNCc1ccc(-c2ccc3ncnc(Nc4ccc(OCc5ccccc5)c(C(F)(F)F)c4)c3c2)o1`
3.88

Item: `c1cc(-c2cnn3nc(N4CCOCC4)ccc23)nc(NC2CC2)n1`
5.12

* * *

Listing of recorded inhibition by entry.
biological target: Phosphorylase b kinase gamma catalytic chain, skeletal muscle/heart isoform (Homo sapiens); settings: at 1 µM;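 note: each value is a mean percent inhibition of PHKG1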
Numbers only; they are read as %.

Check out these entries, answers already filled in.
c1ccc(COc2ccc(Nc3ncnc4ccc(-c5ccco5)cc34)cc2)cc1; 5.22
Fc1ccc(-c2cc(-c3c[nH]nc3-c3ccccn3)ccn2)cc1; 9.03
COc1cc2c(cc1Nc1nc(Nc3ccsc3C(N)=O)c3cc[nH]c3n1)N(C(=O)CN(C)C)CCC2(C)C; 62
CC(=O)NCc1cccc(C#Cc2cncnc2Nc2ccc(OCc3cccc(F)c3)c(Cl)c2)c1; 5.96
COc1ccc(-c2cc(-c3c[nH]nc3-c3ccccn3)ccn2)cc1; 6.04
NS(=O)(=O)c1ccc(N/N=C2\C(=O)Nc3ccc4ncccc4c32)cc1; 50

Give the measured inhibition of `CS(=O)(=O)CCNCc1ccc(-c2ccc3ncnc(Nc4ccc(OCc5ccccc5)c(C(F)(F)F)c4)c3c2)o1` .
6.03

# iterate: `CS(=O)(=O)CCNCc1coc(-c2ccc3ncnc(Nc4ccc(OCc5ccccc5)cc4)c3c2)c1`
6.25

Repeat for the following compound: `N#Cc1c(NC(=O)c2ccc(F)cc2)sc2c1CCCC2`
2.76

Also need `CC(C)COC(=O)c1ccc2c(c1)/C(=C/Nc1ccc(S(N)(=O)=O)cc1)C(=O)N2` , thanks.
50.5

* * *

Measured inhibition, listed per entry.
biological target: Protein-tyrosine kinase 6 (Homo sapiens) (UniProt Q13882); settings: at 1 µM
Sequence (Q13882 whole entry, looked up): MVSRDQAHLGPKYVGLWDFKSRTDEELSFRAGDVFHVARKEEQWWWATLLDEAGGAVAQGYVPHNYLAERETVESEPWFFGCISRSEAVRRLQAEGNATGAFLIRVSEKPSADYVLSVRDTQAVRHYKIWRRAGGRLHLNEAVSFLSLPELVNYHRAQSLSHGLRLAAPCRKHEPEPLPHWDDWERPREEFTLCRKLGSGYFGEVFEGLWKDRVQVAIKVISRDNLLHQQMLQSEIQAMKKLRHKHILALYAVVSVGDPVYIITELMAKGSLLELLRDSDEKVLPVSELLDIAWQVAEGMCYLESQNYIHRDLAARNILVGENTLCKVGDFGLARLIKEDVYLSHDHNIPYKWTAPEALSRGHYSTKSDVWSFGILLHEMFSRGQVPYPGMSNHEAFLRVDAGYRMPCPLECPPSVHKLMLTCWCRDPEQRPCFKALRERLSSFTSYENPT
Description: GSK_PKIS: BRK mean inhibition at 1 uM [Nanosyn]

c1cc(-c2cnn3nc(N4CCOCC4)ccc23)nc(NC2CC2)n1; 7.89%
COc1cc2ncn(-c3cc(OCc4ccccc4C(F)(F)F)c(C(=O)N(C)C)s3)c2cc1OC; -0.8%

I'm curious: which inhibition was measured for `O=C(O[C@H]1CN[C@H](C#Cc2cc3ncnc(Nc4ccc(Cc5ccccc5)cc4)c3s2)C1)N1CCOCC1` tested on Protein-tyrosine kinase 6 (Homo sapiens) (UniProt Q13882)?
18.2%

Now try `CCOc1ccc2c(-c3ccnc(Nc4cccc(C(F)(F)F)c4)n3)cnn2n1` .
0.97%

Also need `Fc1ccc(-c2nn3ncccc3c2-c2ccnc(Nc3ccc4c(c3)OCCO4)n2)cc1` , thanks.
67.8%

* * *

molecular target: Casein kinase II subunit alpha (Homo sapiens) (UniProt P68400); conditions: at 0.1 µM
Sequence (P68400 whole entry, looked up): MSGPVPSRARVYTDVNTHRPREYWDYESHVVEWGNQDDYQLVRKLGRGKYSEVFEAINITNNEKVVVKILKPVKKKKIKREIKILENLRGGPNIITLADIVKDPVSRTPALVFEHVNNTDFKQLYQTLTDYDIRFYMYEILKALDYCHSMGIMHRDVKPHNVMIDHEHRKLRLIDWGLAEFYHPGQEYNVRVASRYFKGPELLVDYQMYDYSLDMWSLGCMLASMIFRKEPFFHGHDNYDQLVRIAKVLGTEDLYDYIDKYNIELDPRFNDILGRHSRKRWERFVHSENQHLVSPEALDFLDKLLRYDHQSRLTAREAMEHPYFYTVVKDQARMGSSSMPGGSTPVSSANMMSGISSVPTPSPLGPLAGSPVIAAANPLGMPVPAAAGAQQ
Description: GSK_PKIS: CK2 mean inhibition at 0.1 uM [Nanosyn]
Consider the following compounds and their measured inhibition readings.
# answer = value followed by unit

The examples below pair each entry with its known result.
CC1=C(C(=O)Nc2cc(Cl)c3[nH]ncc3c2)C(c2ccc(C(F)(F)F)cc2)CC(=O)N1 (stereo not drawn); 3.06%
CCN1CCC(CC(=O)Nc2n[nH]c3nnc(-c4cccc(F)c4F)cc23)CC1; 5.23%

# query: inhibition of entry `CN1CCC(n2cnc(-c3ccc(F)cc3)c2-c2ccnc(N)n2)CC1`
8.38%

* * *

Consider the following compounds and their measured inhibition readings.
target: Protein kinase C iota type (Homo sapiens) (UniProt P41743); settings: at 0.1 µM
Sequence (P41743 whole entry): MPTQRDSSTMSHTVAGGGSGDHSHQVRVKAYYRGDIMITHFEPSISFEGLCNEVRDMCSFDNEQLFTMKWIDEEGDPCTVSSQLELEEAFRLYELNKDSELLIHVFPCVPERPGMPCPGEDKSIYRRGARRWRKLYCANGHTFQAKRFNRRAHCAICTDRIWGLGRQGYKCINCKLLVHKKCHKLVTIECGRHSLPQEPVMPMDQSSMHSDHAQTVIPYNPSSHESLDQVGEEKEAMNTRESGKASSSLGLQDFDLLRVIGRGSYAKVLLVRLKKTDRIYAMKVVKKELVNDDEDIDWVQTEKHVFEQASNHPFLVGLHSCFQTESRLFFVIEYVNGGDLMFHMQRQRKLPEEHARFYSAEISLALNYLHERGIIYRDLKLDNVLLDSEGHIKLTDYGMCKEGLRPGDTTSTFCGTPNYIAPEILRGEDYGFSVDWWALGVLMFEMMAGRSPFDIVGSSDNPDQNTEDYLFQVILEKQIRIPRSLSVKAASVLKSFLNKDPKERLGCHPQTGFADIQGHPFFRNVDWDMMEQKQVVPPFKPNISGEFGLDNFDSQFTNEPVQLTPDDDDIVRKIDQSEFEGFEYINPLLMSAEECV
Description: GSK_PKIS: PKC-iota mean inhibition at 0.1 uM [Nanosyn]
Give the value in % but do not write % after it.

Fc1cccc(COc2ccc(Nc3ncnc4sc(-c5ccco5)cc34)cc2Cl)c1; 2.45
O=S(=O)(CCNCc1ccc(-c2ccc3ncnc(Nc4ccc(OCc5cccc(F)c5)c(Cl)c4)c3c2)o1)c1ccccc1; 4.15
[O-][S+]1CCN(Cc2ccc(-c3ccc4ncnc(Nc5ccc(OCc6cccc(F)c6)c(Cl)c5)c4c3)o2)CC1; 3.42
Nc1nc(-c2cccc(Cl)c2)c(-c2ccc3ncccc3n2)s1; 2.71
COc1ccc(-c2cc3c(N)ncnc3o2)cc1; -0.83
COc1cc(N2CCN(C(C)C)CC2)ccc1Nc1nc(Nc2ccc(F)cc2C(N)=O)c2cc[nH]c2n1; -0.5

What does the record list as inhibition for `c1ccc(COc2ccc(Nc3ncnc4ccc(-c5ccco5)cc34)cc2)cc1` ?
-1.29

Please give the result for `COc1cc2c(cc1Nc1nc(Nc3ccsc3C(N)=O)c3cc[nH]c3n1)N(C(=O)CN(C)C)CCC2(C)C` too.
2.68

Same read-out for `CCCN(CCS(C)(=O)=O)Cc1ccc(-c2ccc3ncnc(Nc4ccc(OCc5cccc(F)c5)c(Cl)c4)c3c2)o1` ?
1.67

* * *

biological target: Cyclin-dependent kinase 2 (Homo sapiens); settings: at 0.1 µM;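 note: mean inhibition of CDK2 bound to cyclin A, from the GSK PKIS kinase inhibitor set screen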
Each item that follows carries a reported inhibition.
Write down the numeric answer in % and omit the unit.

Solved cases below.
N#Cc1c(NC(=O)c2ccc(F)cc2)sc2c1CCCC2; 0.4
CCNC(=O)O[C@H]1CN[C@H](C#Cc2cc3ncnc(Nc4ccc(OCc5cccc(F)c5)c(Cl)c4)c3s2)C1; 2.63
COc1ccc(-c2oc3ncnc(N)c3c2-c2ccc(NC(=O)Nc3cc(C(F)(F)F)ccc3F)cc2)cc1; 1.73
Cc1ccc(O)cc1Nc1ccnc2cc(-c3ccccn3)ccc12; 0.84

Kindly consider the entry below.
Value wanted: inhibition (Cyclin-dependent kinase 2 (Homo sapiens)) of entry `CS(=O)(=O)CCNCc1ccc(-c2ccc3ncnc(Nc4ccc(OCc5ccccc5)c(C(F)(F)F)c4)c3c2)o1`
6.22

* * *

compounds and their reported inhibition
target: Proto-oncogene tyrosine-protein kinase ROS (Homo sapiens) (UniProt P08922); details: at 1 µM;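 note: value given is the mean percent inhibition of ROS kinase activity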
Sequence (P08922 whole entry): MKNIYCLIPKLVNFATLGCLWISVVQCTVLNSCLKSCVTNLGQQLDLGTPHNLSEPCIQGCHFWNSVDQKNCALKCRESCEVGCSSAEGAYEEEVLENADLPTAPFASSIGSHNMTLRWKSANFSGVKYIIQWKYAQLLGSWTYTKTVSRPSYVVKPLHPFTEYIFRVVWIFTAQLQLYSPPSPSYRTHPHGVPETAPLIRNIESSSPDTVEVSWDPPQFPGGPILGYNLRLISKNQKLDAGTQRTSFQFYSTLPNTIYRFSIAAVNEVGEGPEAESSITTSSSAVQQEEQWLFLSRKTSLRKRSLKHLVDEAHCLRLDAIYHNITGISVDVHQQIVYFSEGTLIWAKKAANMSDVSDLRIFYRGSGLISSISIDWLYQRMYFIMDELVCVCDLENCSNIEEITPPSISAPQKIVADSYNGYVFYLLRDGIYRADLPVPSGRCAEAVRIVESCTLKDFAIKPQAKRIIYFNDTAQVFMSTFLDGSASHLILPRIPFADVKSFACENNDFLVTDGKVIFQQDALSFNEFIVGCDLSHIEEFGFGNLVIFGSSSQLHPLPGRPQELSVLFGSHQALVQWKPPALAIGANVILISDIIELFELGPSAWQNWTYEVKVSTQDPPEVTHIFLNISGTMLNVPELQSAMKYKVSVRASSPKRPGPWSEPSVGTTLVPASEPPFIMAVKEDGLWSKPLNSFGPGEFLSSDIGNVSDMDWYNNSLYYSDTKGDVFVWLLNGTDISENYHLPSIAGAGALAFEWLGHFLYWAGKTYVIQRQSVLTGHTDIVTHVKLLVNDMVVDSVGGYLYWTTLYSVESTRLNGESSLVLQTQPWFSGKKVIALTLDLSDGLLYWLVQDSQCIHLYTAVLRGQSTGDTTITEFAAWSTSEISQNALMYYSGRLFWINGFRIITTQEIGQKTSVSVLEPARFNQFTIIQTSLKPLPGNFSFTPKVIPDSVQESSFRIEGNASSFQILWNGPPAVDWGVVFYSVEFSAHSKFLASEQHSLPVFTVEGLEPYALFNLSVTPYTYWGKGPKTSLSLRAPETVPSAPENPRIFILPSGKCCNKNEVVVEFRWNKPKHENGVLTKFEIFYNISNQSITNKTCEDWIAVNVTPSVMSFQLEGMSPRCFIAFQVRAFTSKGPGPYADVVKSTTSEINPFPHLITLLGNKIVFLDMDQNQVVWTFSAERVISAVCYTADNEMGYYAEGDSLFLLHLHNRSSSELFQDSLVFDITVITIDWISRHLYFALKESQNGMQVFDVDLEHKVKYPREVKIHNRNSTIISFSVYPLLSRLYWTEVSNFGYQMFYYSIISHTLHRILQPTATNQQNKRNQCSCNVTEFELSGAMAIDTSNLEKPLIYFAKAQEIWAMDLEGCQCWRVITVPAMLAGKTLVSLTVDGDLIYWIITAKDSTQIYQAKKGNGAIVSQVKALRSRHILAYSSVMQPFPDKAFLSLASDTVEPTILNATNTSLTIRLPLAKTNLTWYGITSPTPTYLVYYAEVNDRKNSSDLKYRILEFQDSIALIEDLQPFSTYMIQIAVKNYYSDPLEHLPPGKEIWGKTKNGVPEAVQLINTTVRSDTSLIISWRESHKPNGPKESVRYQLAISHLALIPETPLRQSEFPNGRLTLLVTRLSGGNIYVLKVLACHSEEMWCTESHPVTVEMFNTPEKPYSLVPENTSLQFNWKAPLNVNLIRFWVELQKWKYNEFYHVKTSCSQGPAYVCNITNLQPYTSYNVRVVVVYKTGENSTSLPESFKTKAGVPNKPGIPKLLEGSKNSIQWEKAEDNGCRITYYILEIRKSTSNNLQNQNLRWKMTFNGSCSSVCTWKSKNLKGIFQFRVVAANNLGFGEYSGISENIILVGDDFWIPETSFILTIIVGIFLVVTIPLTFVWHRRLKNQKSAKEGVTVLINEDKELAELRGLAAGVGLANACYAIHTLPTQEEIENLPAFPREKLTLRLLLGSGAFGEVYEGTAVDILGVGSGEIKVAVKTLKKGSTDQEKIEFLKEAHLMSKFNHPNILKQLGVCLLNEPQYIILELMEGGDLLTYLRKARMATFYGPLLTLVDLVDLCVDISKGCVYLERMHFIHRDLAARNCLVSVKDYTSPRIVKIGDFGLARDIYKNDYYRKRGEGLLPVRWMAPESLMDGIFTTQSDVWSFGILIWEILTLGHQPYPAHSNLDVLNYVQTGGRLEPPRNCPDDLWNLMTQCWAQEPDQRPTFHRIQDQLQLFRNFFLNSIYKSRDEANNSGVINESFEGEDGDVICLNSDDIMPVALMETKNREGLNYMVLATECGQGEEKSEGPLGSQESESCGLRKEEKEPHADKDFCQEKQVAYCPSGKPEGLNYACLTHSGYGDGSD
Numeric answer plus unit only.

Worked cases, inhibition given:
CNC(=O)c1cncc(/C=C/c2ccccc2Cl)c1; 2.7%
Fc1ccc(-c2nn3ncccc3c2-c2ccnc(Nc3ccc4c(c3)OCCO4)n2)cc1; 10.9%
Fc1cccc(COc2ccc(Nc3ncnc4sc(-c5ccco5)cc34)cc2Cl)c1; 8.29%
[O-][S+]1CCN(Cc2ccc(-c3ccc4ncnc(Nc5ccc(OCc6cccc(F)c6)c(Cl)c5)c4c3)o2)CC1; 2.36%
COc1ccc(-c2nn3ncccc3c2-c2ccnc(Nc3ccc4c(c3)OCCO4)n2)cc1; 21.9%
COc1cc2ncn(-c3cc(OCc4ccccc4C(F)(F)F)c(C(=O)N(C)C)s3)c2cc1OC; 2.67%

Returns the measured inhibition for the input compound. Input: `COc1cc(N2CCN(C(C)C)CC2)ccc1Nc1nc(Nc2ccc(F)cc2C(N)=O)c2cc[nH]c2n1`
81.8%

Likewise for `Cc1ccc(O)cc1Nc1ccnc2cc(-c3ccccn3)ccc12` ?
7.97%

Repeat for the following compound: `CCn1c(-c2nonc2N)nc2c(C#CC(C)(C)O)nc(OC[C@H](N)c3ccccc3)cc21`
9.48%
